conditions: in isopropanol, 293.15 K
property_name: solubility (mole fraction)
Form: value (number only, do not type unit).

Problem: Consider the molecule "O=C(Oc1ccccc1)c1ccccc1O" . State its measured solubility (mole fraction).
Result: 0.0487

====

settings: in ethanol, 303.15 K
property_name: solubility (mole fraction)
The answer should be a number; do not append a unit.

Problem: Give solubility (mole fraction) for the following compound: "O=C(Oc1ccccc1)c1ccccc1O"
Result: 0.289

====

conditions: in methanol, 293.15 K
property_name: solubility (mole fraction)
Just the number, please, no unit attached.

Problem: Input "O=C(Oc1ccccc1)c1ccccc1O" , output reported solubility (mole fraction).
Result: 0.0459
